src = paper PMC6930500

# Target: human MOR (Homo sapiens, UniProt P35372)
# Construct: cell lines provided by Professor Lawrence Toll
# Sequence (P35372 whole entry): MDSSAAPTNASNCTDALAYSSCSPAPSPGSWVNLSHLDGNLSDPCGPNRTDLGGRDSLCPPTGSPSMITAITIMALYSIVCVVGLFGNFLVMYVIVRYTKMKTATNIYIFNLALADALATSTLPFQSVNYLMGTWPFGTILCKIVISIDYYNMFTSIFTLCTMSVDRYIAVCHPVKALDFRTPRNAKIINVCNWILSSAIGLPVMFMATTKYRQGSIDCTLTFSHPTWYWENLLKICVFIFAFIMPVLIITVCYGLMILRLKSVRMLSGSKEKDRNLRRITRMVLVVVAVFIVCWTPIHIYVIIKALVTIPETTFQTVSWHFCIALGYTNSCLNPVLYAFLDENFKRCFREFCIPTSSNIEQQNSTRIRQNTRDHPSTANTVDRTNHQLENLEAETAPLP
# Assay info: [35S]-GTPγS binding stimulation, MOR
# Measurement conditions: CHO-human MOR membranes; mean (SEM); * n = 2; dns = does not stimulate, average maximal stimulation <10% at up to 10 µM
Note to self: EC50 under 100 nM means YES, ties and anything higher get NO.

Cc1cc(O)cc(C)c1C[C@H](N)C(=O)N1CCc2ccc(CN3CCc4ccccc4C3)cc2C1: YES
Cc1cc(O)cc(C)c1C[C@H](N)C(=O)N1CCc2ccc(Cc3ccncc3)cc2C1: NO
Cc1cc(O)cc(C)c1C[C@H](N)C(=O)N1CCc2ccc(Cc3cccc(O)c3)cc2C1: YES
COc1ccccc1Cc1ccc2c(c1)CN(C(=O)[C@@H](N)Cc1c(C)cc(O)cc1C)CC2: YES
Cc1cc(O)cc(C)c1C[C@H](N)C(=O)N1CCc2ccc(Cc3cccc(C(F)(F)F)c3)cc2C1: NO

Hello, is EC50 of the following compound strictly smaller than 100 nM? Cc1cc(O)cc(C)c1C[C@H](N)C(=O)N1CCc2ccc(CN3Cc4ccccc4C3)cc2C1
YES

Hello, is EC50 of the following compound strictly smaller than 100 nM? Cc1cc(O)cc(C)c1C[C@H](N)C(=O)N1CCc2ccc(CN3CCCCC3)cc2C1
NO

Hello, is EC50 of the following compound strictly smaller than 100 nM? Cc1cc(O)cc(C)c1C[C@H](N)C(=O)N1CCc2ccc(Cc3ccccc3O)cc2C1
YES

###

# Target: human DOR (Homo sapiens)
# Construct: cell lines provided by Professor Lawrence Toll
# Sequence (P41143 whole entry): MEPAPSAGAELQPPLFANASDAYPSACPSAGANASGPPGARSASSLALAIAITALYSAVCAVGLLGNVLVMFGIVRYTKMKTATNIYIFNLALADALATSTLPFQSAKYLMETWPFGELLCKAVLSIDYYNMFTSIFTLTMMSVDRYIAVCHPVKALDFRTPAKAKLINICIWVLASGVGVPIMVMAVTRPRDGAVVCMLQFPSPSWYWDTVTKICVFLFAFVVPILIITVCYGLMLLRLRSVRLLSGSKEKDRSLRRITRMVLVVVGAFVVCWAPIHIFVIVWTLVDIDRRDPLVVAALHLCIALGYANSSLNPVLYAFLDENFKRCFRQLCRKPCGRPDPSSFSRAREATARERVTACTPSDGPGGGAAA
# Assay info: [35S]-GTPγS binding stimulation, DOR
# Measurement conditions: CHO-human DOR membranes; mean (SEM); * n = 2; dns = does not stimulate, average maximal stimulation <10% at up to 10 µM
Quantity name: pEC50
Numbers only, as −log10 of the molar value.

Cc1cc(O)cc(C)c1C[C@H](N)C(=O)N1CCc2ccc(Cc3cncc4ccccc34)cc2C1: 7.72
Cc1cc(O)cc(C)c1C[C@H](N)C(=O)N1CCc2ccc(Cc3cccc4cccnc34)cc2C1: 8.92

We next turn to a different compound, shown below.
Would you kindly share the measured pEC50 for Cc1cc(O)cc(C)c1C[C@H](N)C(=O)N1CCc2ccc(Cc3ccccc3C(F)(F)F)cc2C1 ?
6.47

###

# Target: human KOR (Homo sapiens)
# Construct: cell lines provided by Professor Lawrence Toll
# Sequence (P41145 whole entry): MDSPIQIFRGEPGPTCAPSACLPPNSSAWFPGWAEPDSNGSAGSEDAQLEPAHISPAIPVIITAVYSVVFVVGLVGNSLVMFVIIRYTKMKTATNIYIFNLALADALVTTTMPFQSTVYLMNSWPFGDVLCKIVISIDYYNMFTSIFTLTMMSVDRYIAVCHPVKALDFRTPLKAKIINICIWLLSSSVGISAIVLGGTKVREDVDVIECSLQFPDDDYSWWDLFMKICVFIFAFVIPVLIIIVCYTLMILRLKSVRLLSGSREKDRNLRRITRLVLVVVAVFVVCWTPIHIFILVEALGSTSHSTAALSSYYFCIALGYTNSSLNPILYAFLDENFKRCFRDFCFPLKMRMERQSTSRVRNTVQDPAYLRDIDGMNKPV
# Assay info: [35S]-GTPγS binding stimulation, KOR
# Measurement conditions: CHO-human KOR membranes; mean (SEM); * n = 2; dns = does not stimulate, average maximal stimulation <10% at up to 10 µM
Note to self: EC50 under 0.1 µM means T, ties and anything higher get F.

For orientation, consider the following solved cases.
Cc1cc(O)cc(C)c1C[C@H](N)C(=O)N1CCc2ccc(CN3CCCc4ccccc43)cc2C1: F
Cc1cc(O)cc(C)c1C[C@H](N)C(=O)N1CCc2ccc(Cc3cncc4ccccc34)cc2C1: T
COc1ccccc1Cc1ccc2c(c1)CN(C(=O)[C@@H](N)Cc1c(C)cc(O)cc1C)CC2: F
Cc1cc(O)cc(C)c1C[C@H](N)C(=O)N1CCc2ccc(Cc3ccncc3)cc2C1: F
COc1cccc(Cc2ccc3c(c2)CN(C(=O)[C@@H](N)Cc2c(C)cc(O)cc2C)CC3)c1: F
Cc1cc(O)cc(C)c1C[C@H](N)C(=O)N1CCc2ccc(Cc3cccc4ncccc34)cc2C1: T

Hello, is EC50 of the following compound strictly smaller than 0.1 µM? Cc1cc(O)cc(C)c1C[C@H](N)C(=O)N1CCc2ccc(Cc3cccc(C(F)(F)F)c3)cc2C1
F

Hello, is EC50 of the following compound strictly smaller than 0.1 µM? Cc1cc(O)cc(C)c1C[C@H](N)C(=O)N1CCc2ccc(Cc3ccccc3C(F)(F)F)cc2C1
F

###

# Target: human DOR (Homo sapiens)
# Construct: expressed in transfected cells; cell lines provided by Professor Lawrence Toll
# Assay info: [35S]-GTPγS binding stimulation, DOR
# Format: biochemical
# Measurement conditions: CHO-human DOR membranes; mean (SEM); * n = 2; dns = does not stimulate, average maximal stimulation <10% at up to 10 µM
# Protocol: Each novel compound was evaluated for binding to and stimulation of KOR, MOR, and DOR. Binding affinity (Ki) was determined by competitive displacement of [^3H]-diprenorphine, a non-selective opioid receptor antagonist with similar affinity for each of the three receptors. Potency (EC50) and efficacy, expressed as percent stimulation compared to a standard agonist at each receptor, were determined by a [^35S]-GTPγS binding assay. […]
Quantity name: EC50 DOR

Guide cases for EC50 DOR, answers given:
Cc1cc(O)cc(C)c1C[C@H](N)C(=O)N1CCc2ccc(CN3CCc4ccccc4C3)cc2C1: dns *
Cc1cc(O)cc(C)c1C[C@H](N)C(=O)N1CCc2ccc(Cc3ccc4ccccc4c3)cc2C1: dns
COc1ccccc1Cc1ccc2c(c1)CN(C(=O)[C@@H](N)Cc1c(C)cc(O)cc1C)CC2: dns *
Cc1cc(O)cc(C)c1C[C@H](N)C(=O)N1CCc2ccc(CN3CCCc4ccccc43)cc2C1: dns *
COc1cccc(Cc2ccc3c(c2)CN(C(=O)[C@@H](N)Cc2c(C)cc(O)cc2C)CC3)c1: dns
Cc1cc(O)cc(C)c1C[C@H](N)C(=O)N1CCc2ccc(Cc3cccc4ccccc34)cc2C1: dns

Quick request: EC50 DOR for each listed item, please.
1. Cc1cc(O)cc(C)c1C[C@H](N)C(=O)N1CCc2ccc(Cc3cccc(O)c3)cc2C1
2. Cc1cc(O)cc(C)c1C[C@H](N)C(=O)N1CCc2ccc(CN3Cc4ccccc4C3)cc2C1

dns *
dns *

###

Kindly state log10 EC50 for each of the entries shown.
# Target: human KOR (Homo sapiens)
# Construct: cell lines provided by Professor Lawrence Toll
# Assay info: [35S]-GTPγS binding stimulation, KOR
# Measurement conditions: CHO-human KOR membranes; mean (SEM); * n = 2; dns = does not stimulate, average maximal stimulation <10% at up to 10 µM
Use the decimal logarithm of EC50 (nM).

Guide cases for log10 EC50, answers given:
Cc1cc(O)cc(C)c1C[C@H](N)C(=O)N1CCc2ccc(CN3CCc4ccccc43)cc2C1: 2.03
Cc1cc(O)cc(C)c1C[C@H](N)C(=O)N1CCc2ccc(Cc3cccc(O)c3)cc2C1: 2.17
Cc1cc(O)cc(C)c1C[C@H](N)C(=O)N1CCc2ccc(Cc3cccc4cccnc34)cc2C1: 2.41

Quick request: log10 EC50 for each listed item, please.
1. Cc1cc(O)cc(C)c1C[C@H](N)C(=O)N1CCc2ccc(Cc3ccccc3O)cc2C1
2. Cc1cccc(Cc2ccc3c(c2)CN(C(=O)[C@@H](N)Cc2c(C)cc(O)cc2C)CC3)c1C
3. Cc1cc(O)cc(C)c1C[C@H](N)C(=O)N1CCc2ccc(Cc3cccnc3)cc2C1
4. Cc1cc(O)cc(C)c1C[C@H](N)C(=O)N1CCc2ccc(Cc3ccccc3C#N)cc2C1
5. Cc1cc(O)cc(C)c1C[C@H](N)C(=O)N1CCc2ccc(Cc3cccc4cnccc34)cc2C1
6. Cc1cc(O)cc(C)c1C[C@H](N)C(=O)N1CCc2ccc(Cc3cccc4ccncc34)cc2C1

1. 1.04
2. 3.01
3. 2.99
4. 0.57
5. 2.78
6. 1.81

Would you kindly share the measured log10 EC50 for Cc1cc(O)cc(C)c1C[C@H](N)C(=O)N1CCc2ccc(Cc3cccc4ccccc34)cc2C1 ?
2.54

###

# Target: human MOR (Homo sapiens)
# Construct: expressed in transfected cells; cell lines provided by Professor Lawrence Toll
# Assay info: [35S]-GTPγS binding stimulation, MOR
# Type: biochemical
# Measurement conditions: versus 10 µM standard agonist DAMGO; mean (SEM); * n = 2; dns = average maximal stimulation <10% at up to 10 µM
Quantity name: Emax (%)
Answers are plain numbers, in %.

Guide cases for Emax, answers given:
Cc1cc(O)cc(C)c1C[C@H](N)C(=O)N1CCc2ccc(Cc3cncc4ccccc34)cc2C1 [Compound 8v]: 81
Cc1cc(O)cc(C)c1C[C@H](N)C(=O)N1CCc2ccc(Cc3cccc4ccccc34)cc2C1 [Compound 8o]: 59
Cc1cc(O)cc(C)c1C[C@H](N)C(=O)N1CCc2ccc(CN3CCOCC3)cc2C1 [Compound 8n]: 38
COc1ccccc1Cc1ccc2c(c1)CN(C(=O)[C@@H](N)Cc1c(C)cc(O)cc1C)CC2 [Compound 8a]: 37
COc1cccc(Cc2ccc3c(c2)CN(C(=O)[C@@H](N)Cc2c(C)cc(O)cc2C)CC3)c1 [Compound 8e]: 48
Cc1cc(O)cc(C)c1C[C@H](N)C(=O)N1CCc2ccc(Cc3cccc4ccncc34)cc2C1 [Compound 8r]: 36
Cc1cc(O)cc(C)c1C[C@H](N)C(=O)N1CCc2ccc(CN3CCc4ccccc4C3)cc2C1 [Compound 8w]: 85
Cc1cc(O)cc(C)c1C[C@H](N)C(=O)N1CCc2ccc(CN3CCc4ccccc43)cc2C1 [Compound 8y]: 65

We next turn to a different compound, shown below.
Would you kindly share the measured Emax for Cc1cc(O)cc(C)c1C[C@H](N)C(=O)N1CCc2ccc(Cc3cccnc3)cc2C1 [Compound 8j] ?
23
